target: Nav1.4 (sodium channel protein type 4 subunit alpha) (Homo sapiens); test: Inhibition of Nav1.4 (unknown origin) at 30 uM relative to control; type: toxicity
Sequence (P35499 whole entry): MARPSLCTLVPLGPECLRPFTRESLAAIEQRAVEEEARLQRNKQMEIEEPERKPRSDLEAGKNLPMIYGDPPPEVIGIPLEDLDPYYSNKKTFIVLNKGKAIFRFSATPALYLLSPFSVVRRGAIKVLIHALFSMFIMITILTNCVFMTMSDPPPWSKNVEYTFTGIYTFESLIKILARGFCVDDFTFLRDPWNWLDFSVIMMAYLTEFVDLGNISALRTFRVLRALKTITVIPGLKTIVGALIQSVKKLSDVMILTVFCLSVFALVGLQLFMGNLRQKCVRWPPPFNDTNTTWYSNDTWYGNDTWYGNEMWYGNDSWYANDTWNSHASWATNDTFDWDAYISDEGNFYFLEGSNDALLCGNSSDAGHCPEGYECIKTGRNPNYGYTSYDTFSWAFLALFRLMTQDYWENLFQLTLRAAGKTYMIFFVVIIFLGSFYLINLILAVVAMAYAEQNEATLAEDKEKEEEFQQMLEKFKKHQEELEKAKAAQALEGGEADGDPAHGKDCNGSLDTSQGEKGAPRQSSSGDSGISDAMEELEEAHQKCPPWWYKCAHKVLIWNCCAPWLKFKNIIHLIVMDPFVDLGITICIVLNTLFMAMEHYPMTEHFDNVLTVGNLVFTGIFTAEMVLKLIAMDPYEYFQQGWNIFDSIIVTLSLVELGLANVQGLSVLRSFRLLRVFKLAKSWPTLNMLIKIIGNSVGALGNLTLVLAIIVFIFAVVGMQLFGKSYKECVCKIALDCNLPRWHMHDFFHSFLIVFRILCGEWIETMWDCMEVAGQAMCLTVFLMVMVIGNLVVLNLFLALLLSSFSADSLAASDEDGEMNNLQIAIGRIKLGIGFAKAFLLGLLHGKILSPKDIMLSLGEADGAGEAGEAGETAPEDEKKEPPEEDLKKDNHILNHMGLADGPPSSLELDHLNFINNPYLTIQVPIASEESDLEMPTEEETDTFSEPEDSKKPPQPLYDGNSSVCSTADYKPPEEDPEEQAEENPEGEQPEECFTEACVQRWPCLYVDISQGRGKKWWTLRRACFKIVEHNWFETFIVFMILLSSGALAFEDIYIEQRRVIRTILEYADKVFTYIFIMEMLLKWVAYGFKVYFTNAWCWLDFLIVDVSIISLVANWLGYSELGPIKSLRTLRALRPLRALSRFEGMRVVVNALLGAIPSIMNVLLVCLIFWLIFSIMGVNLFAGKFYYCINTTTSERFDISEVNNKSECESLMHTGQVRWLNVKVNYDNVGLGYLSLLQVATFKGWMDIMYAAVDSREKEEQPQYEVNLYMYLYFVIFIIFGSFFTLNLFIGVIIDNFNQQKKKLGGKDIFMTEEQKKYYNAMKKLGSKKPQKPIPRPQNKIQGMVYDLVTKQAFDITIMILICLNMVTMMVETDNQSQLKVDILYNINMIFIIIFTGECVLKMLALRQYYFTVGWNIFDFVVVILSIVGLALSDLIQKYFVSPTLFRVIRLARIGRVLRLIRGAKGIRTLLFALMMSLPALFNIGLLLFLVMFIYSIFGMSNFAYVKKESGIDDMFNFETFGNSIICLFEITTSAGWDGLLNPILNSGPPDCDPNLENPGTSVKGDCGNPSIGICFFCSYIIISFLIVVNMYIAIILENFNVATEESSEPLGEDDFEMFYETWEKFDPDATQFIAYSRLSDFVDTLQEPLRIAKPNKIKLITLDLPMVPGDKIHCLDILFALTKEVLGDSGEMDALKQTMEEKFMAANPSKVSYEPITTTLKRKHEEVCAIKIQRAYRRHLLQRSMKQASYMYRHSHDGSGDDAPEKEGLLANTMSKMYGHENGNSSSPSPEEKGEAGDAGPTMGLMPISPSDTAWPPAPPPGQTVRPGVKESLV
recordedMetric: inhibition at 30 µM

If you can, please state the reported inhibition at 30 µM value of CS(=N)(=O)c1cccc(NC(=O)c2cc(C(F)(F)F)cnc2Oc2ccc(F)cc2Cl)c1 (configuration not stated) .
< 25%

Continue with the compound presented below.
If you can, please state the reported inhibition at 30 µM value of Cc1cc(F)ccc1Oc1ncc(C(F)(F)F)cc1C(=O)Nc1cccc([S@](C)(=N)=O)c1 .
< 25%

----------
assay: Kinetic solubility of the compound in pH 7.4 phosphate buffered saline measured after 2 hrs by LC/MS analysis; assay type: physicochemical; conditions: read-out: Kinetic_solubility
recordedMetric: solubility kinetic at 2 h (µg/mL)
Report as a plain number; the unit µg/mL is understood.

If you can, please state the reported solubility kinetic at 2 h value of CS(=O)(=O)c1cccc(NC(=O)c2cc(C(F)(F)F)cnc2Oc2ccc(OC(F)(F)F)cc2Cl)c1 .
1.5

New cases:
If you can, please state the reported solubility kinetic at 2 h value of COc1cc(F)ccc1Oc1ncc(C(F)(F)F)cc1C(=O)Nc1ccc[n+]([O-])c1 .
128

If you can, please state the reported solubility kinetic at 2 h value of COc1cc(F)ccc1Oc1ncc(C(F)(F)F)cc1C(=O)Nc1ccnnc1 .
70

If you can, please state the reported solubility kinetic at 2 h value of Cc1cc(OC(F)(F)F)ccc1Oc1ncc(C(F)(F)F)cc1C(=O)Nc1cccc(S(C)(=O)=O)c1 .
1.4

# credit: ChEMBL document CHEMBL6114946
